# Tested on: M14 melanoma
# measurement.description: NCI-60 one-dose screen, 48 h (100 = growth as untreated, 0 = no growth, -100 = all killed)
# applied.conditions: 10 µM unless noted
About 83,000 compounds went through this panel and 20% of them were active in at least one assay; those are over-represented in the sample as a whole. Active and inactive are the calls of the source. How the source made its calls: active means growth percent below 10; inactive means the rest.
reported.endpoint: growth

O=C(NCCNC(=O)c1cc(S(=O)(=O)NCCc2ccccc2)c(O)c(O)c1O)c1cc(S(=O)(=O)NCCc2ccccc2)c(O)c(O)c1O	44.4% (inactive)

Record growth for all entries; do not skip any.
1. CCc1oc2ccccc2c1C(=O)c1cc(I)c(O)c(I)c1
2. Cc1n(Cc2ccc3ccccc3n2)cc[n+]1Cc1ccc2ccccc2n1
3. CCCCOc1ncnc2nc[nH]c12

Return:
16.2% (inactive)
86.9% (inactive)
106% (inactive)

Please report growth for every entry that follows.
1. CS(=O)(=O)Nc1cc(-c2cc3ncc(C#N)c(Nc4ccc(Oc5ccccc5)c(Cl)c4)c3s2)cnc1Cl
2. NC(=Nc1ccccc1)SCCCSC(N)=Nc1ccccc1
3. COc1ccc2nc(NC(=O)/C(=C/c3cc(OC)c(OC)c(OC)c3)c3ccc(OC)c(OC)c3)sc2c1
4. CC(=O)N[C@@H](CCC(N)=O)C(=O)O
5. COCCn1c(Nc2ccc(C(=O)NO)cc2)nc2ccccc21
6. O=[N+]([O-])c1ccccc1CN1CCCCC1

Return:
50.1% (inactive)
95.6% (inactive)
104% (inactive)
93.4% (inactive)
51.6% (inactive)
114% (inactive)

====

# Test system: SNB-75 CNS
# measurement.description: NCI-60 one-dose screen, 48 h (100 = growth as untreated, 0 = no growth, -100 = all killed)
# applied.conditions: 10 µM unless noted
About 83,000 compounds went through this panel and 20% of them were active in at least one assay; those are over-represented in the sample as a whole.
Consider the following molecules; for each one, report its growth.
Numbers only, in %.

Solved entries:
Nc1c(C(=O)c2ccc(Br)cc2)sc2nc3c(cc12)CCCC3	101
COCCn1c(Nc2ccc(C(=O)NO)cc2)nc2ccccc21	22.1
Nc1cc2nc3ccccc3oc-2cc1=O	-86
CCOC(=O)c1ccc(NCCC(=O)O)cc1	96
COc1ccc(C2C3=C(COC3=O)N(CCO)c3cc(OC)c(OC)cc32)cc1 (stereo not given)	93.3

Below is a list of molecules. For each, state its recorded growth.
1. N#Cc1nc(-c2cccc(Br)c2)cc(-c2ccc(Nc3nc(N4CCCCC4)nc(N4CCCCC4)n3)cc2)c1N
2. COc1cc(Nc2ccnc3ccc(Br)cc23)cc(OC)c1OC

Return:
-45.1
-4.34

Could you tell me growth for each of these molecules? They are listed below.
1. COc1ccc2[nH]cc(/C=C3\C(=O)Nc4ccccc43)c2c1
2. Cn1nc(C(F)(F)F)cc1-c1c[nH]c(OCc2ccc(Cl)cc2)c(-c2ccc(Cl)c(C(F)(F)F)c2)c1=O
3. Cc1cc(O)c(C2=NN(c3ccc(S(N)(=O)=O)cc3)C(c3ccc(Cl)cc3)C2)c(C)c1Cl (stereo not given)

Return:
8.46
-6.2
67.4

====

# Tested on: UO-31 renal
# measurement.description: NCI-60 one-dose screen, 48 h
# applied.conditions: 10 µM unless noted
Compounds without any hit were thinned out: in the full panel of roughly 83,000, 20% have a hit. The source made the active and inactive calls. Rule for the calls: active = growth percent below 10; inactive = the rest.
Classes to choose from: yes for active, no for inactive

These solved cases illustrate the format of a correct answer.
O=C(Nc1ccc(OS(=O)(=O)c2ccc(F)cc2)cc1)C12CC3CC(CC(C3)C1)C2	no
COc1ccc(Br)c2ccccc12	no
CCCCCCCCCCCCCCCCCC1=NC(C)(C)CN1C(C)(C)CO	yes
O=C(/C=C/c1ccccc1)C(Br)C(Br)c1ccccc1 (stereo unspecified)	yes
COc1ccccc1NC(=O)OCC12COCN1COC2	no

Enquiry: Could you check what this test reported for COC(=O)C(CCC(=O)CCl)N1C(=O)c2ccccc2C1=O (stereo unspecified) ?
Return: no

Enquiry: Given `COc1cc2cc(C(=O)Nc3ccccc3)c(N)nc2cc1OC` , state the outcome it received in this test.
Return: yes

Enquiry: Record request — test call for COc1ccc2[nH]cc(C(c3ccc(Cl)cc3)N3CCCC3)c2c1 (stereo unspecified)
Return: no

Enquiry: What was the test verdict on `CC[C@H](Nc1nc(C)nc(N)c1C#N)c1nc2cccc(NCc3ccc(C(=O)NO)cc3)c2c(=O)n1-c1ccccc1` ?
Return: yes

Enquiry: Please state the recorded outcome for this compound: `CC1CCN(Cc2ccc(NC(=O)c3cc4ccc5cccnc5c4[nH]3)cc2)CC1`
Return: no

Enquiry: Please indicate how the test categorized `COc1ccc2[nH]c(C(=O)OCc3ccc4cccc(O)c4n3)cc2c1` .
Return: yes
